Where do these numbers come from? They come from paper PMC5681660.

- TEST_SYSTEM: human NTCP (Homo sapiens, UniProt Q14973)
- TEST_METHOD_NOTES: Screening taurocholate uptake assay (96-well, [14C]taurocholate, 10 µM drug)
- CONDITION_INFO: Prestwick library screen, taurocholate uptake, 10 µM drug
Structures can show the parent of a compound that is named as a salt.
ATTRIBUTE_MEASURED: B-score functional assay
Just the number, please, no unit after it.

{"columns": ["COMPOUND", "TEST_SYSTEM", "B-score functional assay"],
 "data": [
  ["COc1ccc(C(=O)NCc2cccnc2)cc1C(=O)NCc1cccnc1.O [Picotamide monohydrate]", "human NTCP (Homo sapiens, UniProt Q14973)", -0.041],
  ["Cc1ccccc1OCC(O)CO (centres unmarked)", "human NTCP (Homo sapiens, UniProt Q14973)", -0.317],
  ["COc1cc(NS(=O)(=O)c2ccc(N)cc2)nc(OC)n1", "human NTCP (Homo sapiens, UniProt Q14973)", 0.762],
  ["NCCc1ccc(O)c(O)c1 [Dopamine hydrochloride]", "human NTCP (Homo sapiens, UniProt Q14973)", -0.07],
  ["C[C@]12CC[C@@H]3c4ccc(O)cc4C[C@@H](CCCCCCCCC[S+]([O-])CCCC(F)(F)C(F)(F)F)[C@H]3[C@@H]1CC[C@@H]2O (some centres unmarked)", "human NTCP (Homo sapiens, UniProt Q14973)", 1.208]
]}

I'd like to know its B-score functional assay. The compound in question is "Nc1cc(C(Cl)=C(Cl)Cl)c(S(N)(=O)=O)cc1S(N)(=O)=O" 0.953

I'd like to know its B-score functional assay. The compound in question is "C#C[C@]1(O)CC[C@H]2[C@@H]3CCC4=CC(=O)CC[C@]4(C)[C@H]3CC[C@@]21C" -0.564

I'd like to know its B-score functional assay. The compound in question is CC1CC(OC(=O)c2ccccc2O)CC(C)(C)C1 (centres unmarked) [Homosalate] 0.284

I'd like to know its B-score functional assay. The compound in question is CCCN(CCC)CCc1cccc2c1CC(=O)N2 [Ropinirole HCl] -0.072

I'd like to know its B-score functional assay. The compound in question is "Cl.Cl.Cl.Cl.Cl.NCCNCCNCCNCCN" -0.035

I'd like to know its B-score functional assay. The compound in question is COc1ccc2c3c1O[C@H]1C[C@@H](O)C=C[C@@]31CCN(C)C2 [Galanthamine hydrobromide] 0.072

----------
Entries and their measured Ranking score follow.
- TEST_SYSTEM: human NTCP (Homo sapiens)
- Sequence (Q14973 1-349): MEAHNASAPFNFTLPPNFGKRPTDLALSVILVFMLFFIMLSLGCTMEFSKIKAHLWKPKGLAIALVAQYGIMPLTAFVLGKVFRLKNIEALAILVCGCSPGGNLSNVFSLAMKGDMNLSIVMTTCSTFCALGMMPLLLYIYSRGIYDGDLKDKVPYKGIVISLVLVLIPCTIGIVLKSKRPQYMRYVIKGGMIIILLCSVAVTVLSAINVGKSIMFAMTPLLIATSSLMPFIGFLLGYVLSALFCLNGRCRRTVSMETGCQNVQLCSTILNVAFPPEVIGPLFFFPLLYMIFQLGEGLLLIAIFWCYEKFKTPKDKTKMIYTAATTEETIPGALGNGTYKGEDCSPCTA
- TEST_METHOD_NOTES: Screening taurocholate uptake assay (96-well, [14C]taurocholate, 10 µM drug)
- CONDITION_INFO: combined ranking of functional and binding screening assays
Structures can show the parent of a compound that is named as a salt.
Just the number, please, no unit after it.

Worked set:
{"columns": ["COMPOUND", "Ranking score"],
 "data": [
  ["CC[N+](C)(CC)CCC[n+]1c(-c2ccccc2)c2cc(N)ccc2c2ccc(N)cc21.[I-].[I-] [Propidium iodide]", 504.845],
  ["CCN(CC)CCOC(=O)C(Cc1cccc2ccccc12)CC1CCCO1 (stereo not drawn) [Nafronyl oxalate]", 488.941],
  ["NS(=O)(=O)c1cc(C(=O)O)cc(N2CCCC2)c1Oc1ccccc1 [Piretanide]", 548.109]
]}

I'd like to know its Ranking score. The compound in question is Cc1[nH]cnc1CN1CCc2c(c3ccccc3n2C)C1=O [Alosetron hydrochloride] 562.783

I'd like to know its Ranking score. The compound in question is "C=CC[C@]1(O)CC[C@H]2[C@@H]3CCC4=CC(=O)CCC4=C3C=C[C@@]21C" 607.028

I'd like to know its Ranking score. The compound in question is "Nc1c2ccccc2nc2ccccc12" 608.609
